experiment: Liver microsomal stability, human; settings: both, microsomes, pH 7.4
We begin with a simple list: items and their reported half-life at 20 μM.

molecule	test_result
CCCSc1ccc2nc(NC(=O)OC)[nH]c2c1 [albendazole]	> 4 h

Query block: Entry C[C@H]1O[C@@H](O[C@H]2[C@@H](O)C[C@H](O[C@H]3[C@@H](O)C[C@H](O[C@H]4CC[C@@]5(C)[C@H](CC[C@@H]6[C@@H]5C[C@@H](O)[C@]5(C)[C@@H](C7=CC(=O)OC7)CC[C@]65O)C4)O[C@@H]3C)O[C@@H]2C)C[C@H](O)[C@@H]1O [digoxin] : reported half-life at 20 μM = ?
Result block: > 4 h
